# Test system: A-375
# assay procedure: Cytotoxicity against human A375 cells in absence of HSF1 knock down treatment
# Type: functional, cell-based
test readout: IC50 (µM)
// return numeric value only (unit: µM, not printed)

Under A-375, report IC50 for COc1cccc(-c2cc(F)ccc2[C@H]2Cc3nc(N)nc(C)c3C(=O)N2)n1
0.019

* * *

# System: A2058
# assay procedure: Cytotoxicity against human A2058 cells in presence of HSF1 knock down treatment
# Format: functional, cell-based
test readout: IC50 (nM)
// return numeric value only (unit: nM, not printed)

Answer with reported IC50 of COc1cccc(-c2cc(F)ccc2[C@H]2Cc3nc(N)nc(C)c3C(=O)N2)n1
5.2
